Measured On: Epidermal growth factor receptor (Homo sapiens, UniProt P00533, L858R/T790M)
Sequence (P00533 25-1210 T790M/L858R limits assumed): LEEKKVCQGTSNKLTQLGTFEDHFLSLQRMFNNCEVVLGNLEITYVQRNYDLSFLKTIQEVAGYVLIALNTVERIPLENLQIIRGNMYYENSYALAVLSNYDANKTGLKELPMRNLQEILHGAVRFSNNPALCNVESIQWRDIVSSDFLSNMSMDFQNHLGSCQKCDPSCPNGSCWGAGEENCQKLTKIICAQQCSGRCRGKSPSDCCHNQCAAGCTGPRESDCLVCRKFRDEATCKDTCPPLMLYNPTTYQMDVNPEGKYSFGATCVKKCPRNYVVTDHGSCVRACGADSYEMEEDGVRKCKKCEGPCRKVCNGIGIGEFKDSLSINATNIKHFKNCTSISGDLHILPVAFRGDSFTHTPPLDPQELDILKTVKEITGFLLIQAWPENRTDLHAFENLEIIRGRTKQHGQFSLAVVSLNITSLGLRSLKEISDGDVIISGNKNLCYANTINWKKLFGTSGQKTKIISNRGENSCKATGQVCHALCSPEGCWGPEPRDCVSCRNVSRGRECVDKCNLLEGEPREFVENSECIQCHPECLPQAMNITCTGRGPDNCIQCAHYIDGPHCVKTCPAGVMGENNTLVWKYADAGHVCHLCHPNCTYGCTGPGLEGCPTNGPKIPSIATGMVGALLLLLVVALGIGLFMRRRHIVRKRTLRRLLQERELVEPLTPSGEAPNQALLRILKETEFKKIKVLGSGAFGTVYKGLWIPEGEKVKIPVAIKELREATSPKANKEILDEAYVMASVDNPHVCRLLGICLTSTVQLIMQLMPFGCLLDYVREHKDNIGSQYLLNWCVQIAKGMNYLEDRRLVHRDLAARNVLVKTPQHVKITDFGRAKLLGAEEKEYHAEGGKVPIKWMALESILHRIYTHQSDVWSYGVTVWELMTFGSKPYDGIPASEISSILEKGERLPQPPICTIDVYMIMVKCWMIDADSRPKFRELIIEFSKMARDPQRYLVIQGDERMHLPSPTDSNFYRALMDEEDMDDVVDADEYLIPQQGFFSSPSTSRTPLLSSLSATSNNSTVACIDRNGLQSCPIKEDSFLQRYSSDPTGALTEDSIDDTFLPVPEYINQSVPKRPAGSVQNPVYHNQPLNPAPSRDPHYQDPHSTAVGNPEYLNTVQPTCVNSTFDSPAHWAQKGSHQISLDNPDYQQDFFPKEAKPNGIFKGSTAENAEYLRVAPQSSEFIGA
Experiment Description: Inhibition of EGFR T790M/L858R double mutant autophosphorylation in human NCI-H1975 cells incubated for 2 hrs by ELISA
Strictly below 20 nM in EC50: true (1). Otherwise: false (0).

Record excerpt, results attached:
>>> df
                      smiles_representation  label_class
0  C=CC(=O)Nc1cccc(-n2c(-c3nc(-c4cnn(C5CCN(C)CC5)c4)cnc3N)nc3ccccc32)c1     true (1)
1  CC(=O)Nc1cccc(-n2c(-c3nc(-c4cnn(C5CCN(C)CC5)c4)cnc3N)nc3ccccc32)c1    false (0)
2  C=CC(=O)NCCn1c(-c2nc(-c3cnn(C4CCN(C)CC4)c3)cnc2N)nc2ccccc21    false (0)

Incoming: Field: below-cutoff. Rule: recorded EC50 strictly less than 20 nM. Subject: C=CC(=O)Nc1cccc(Cn2c(-c3nc(-c4cnn(C5CCN(C)CC5)c4)cnc3N)nc3ccccc32)c1
Outgoing: false (0)

Incoming: Field: below-cutoff. Rule: recorded EC50 strictly less than 20 nM. Subject: C=CC(=O)Nc1cccc(-n2c(-c3nc(-c4cnn(C5CCN(C(C)=O)CC5)c4)cnc3N)nc3ccccc32)c1
Outgoing: false (0)

* * *

Measured On: Epidermal growth factor receptor (Homo sapiens, UniProt P00533, EX19DEL)
Sequence (P00533 whole entry, looked up, stated change not applied): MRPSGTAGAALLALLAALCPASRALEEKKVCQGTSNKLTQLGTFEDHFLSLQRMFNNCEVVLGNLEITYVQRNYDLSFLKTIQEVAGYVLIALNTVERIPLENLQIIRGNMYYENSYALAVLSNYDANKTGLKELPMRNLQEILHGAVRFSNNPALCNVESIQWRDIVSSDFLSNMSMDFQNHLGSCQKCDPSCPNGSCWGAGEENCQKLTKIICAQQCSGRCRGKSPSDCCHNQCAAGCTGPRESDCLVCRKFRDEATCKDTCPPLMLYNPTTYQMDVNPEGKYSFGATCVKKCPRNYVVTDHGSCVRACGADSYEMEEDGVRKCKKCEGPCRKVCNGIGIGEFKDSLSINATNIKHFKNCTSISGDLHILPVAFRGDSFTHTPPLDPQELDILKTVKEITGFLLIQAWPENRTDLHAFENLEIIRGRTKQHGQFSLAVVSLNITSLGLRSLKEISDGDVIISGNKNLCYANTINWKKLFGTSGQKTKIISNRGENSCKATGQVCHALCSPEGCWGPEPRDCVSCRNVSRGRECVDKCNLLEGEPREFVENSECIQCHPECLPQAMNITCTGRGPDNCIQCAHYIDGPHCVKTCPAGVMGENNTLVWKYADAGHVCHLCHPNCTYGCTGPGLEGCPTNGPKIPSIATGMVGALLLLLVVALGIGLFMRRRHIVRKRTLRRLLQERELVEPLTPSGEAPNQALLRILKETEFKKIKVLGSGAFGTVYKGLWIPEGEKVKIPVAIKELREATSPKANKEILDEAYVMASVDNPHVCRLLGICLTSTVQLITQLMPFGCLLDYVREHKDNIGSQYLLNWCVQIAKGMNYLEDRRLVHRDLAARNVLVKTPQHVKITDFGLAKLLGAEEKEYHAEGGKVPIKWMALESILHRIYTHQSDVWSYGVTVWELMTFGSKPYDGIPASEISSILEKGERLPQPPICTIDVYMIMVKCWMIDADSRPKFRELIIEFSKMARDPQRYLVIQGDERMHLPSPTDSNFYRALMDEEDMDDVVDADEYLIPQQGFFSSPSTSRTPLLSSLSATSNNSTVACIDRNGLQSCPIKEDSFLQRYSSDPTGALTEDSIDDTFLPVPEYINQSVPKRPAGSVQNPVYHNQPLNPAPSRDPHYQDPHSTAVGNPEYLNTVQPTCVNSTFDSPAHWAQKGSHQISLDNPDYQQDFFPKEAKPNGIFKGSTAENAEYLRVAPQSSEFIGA
Experiment Description: Inhibition of EGFR exon19 deletion activating mutant autophosphorylation in human PC9 cells incubated for 2 hrs by ELISA
Observation Type: EC50 (nM)
Give just the number in nM; leave the unit off.

Study these solved cases before continuing.
>>> df
                      smiles_representation                               measured_on  scale_unit  reported_value
0  C=CC(=O)Nc1cccc(-n2c(-c3nc(-c4cnn(CCN5CCN(C)CC5)c4)cnc3N)nc3ccccc32)c1  Epidermal growth factor receptor (Homo sapiens, UniProt P00533, EX19DEL)          nM              15
1  C=CC(=O)N(C)c1cccc(-n2c(-c3nc(-c4cnn(C5CCN(C)CC5)c4)cnc3N)nc3ccccc32)c1  Epidermal growth factor receptor (Homo sapiens, UniProt P00533, EX19DEL)          nM             250
2  C=CC(=O)Nc1ccc(F)c(-n2c(-c3nc(-c4cnn(C5CCN(C)CC5)c4)cnc3N)nc3ccccc32)c1  Epidermal growth factor receptor (Homo sapiens, UniProt P00533, EX19DEL)          nM              43

Incoming: State, in one line, measured EC50 of C=CC(=O)Nc1cccc(-n2c(-c3nc(-c4cnn(C5CCN(CC)CC5)c4)cnc3N)nc3ccccc32)c1
Outgoing: 16

Incoming: State, in one line, measured EC50 of C=CC(=O)Nc1ccccc1Cn1c(-c2nc(-c3cnn(C4CCN(C)CC4)c3)cnc2N)nc2ccccc21
Outgoing: 3

Incoming: State, in one line, measured EC50 of C=CC(=O)Nc1cccc(-n2c(-c3nc(-c4cnn(C5CCN(C)CC5)c4)cnc3N)nc3ccccc32)c1
Outgoing: 9

Incoming: State, in one line, measured EC50 of CC(=O)Nc1cccc(-n2c(-c3nc(-c4cnn(C5CCN(C)CC5)c4)cnc3N)nc3ccccc32)c1
Outgoing: 8010

Incoming: State, in one line, measured EC50 of C=CC(=O)Nc1cccc(-n2c(-c3nc(-c4cnn(C5CCN(C)CC5)c4)cnc3N)nc3cnccc32)c1
Outgoing: 10

Incoming: State, in one line, measured EC50 of C=CC(=O)Nc1cccc(-n2c(-c3nc(-c4cnn(C5CCN(C(C)=O)CC5)c4)cnc3N)nc3ccccc32)c1
Outgoing: 23
